The measurements presented in this section are drawn from the NIST ThermoML archive (doi:10.1021/je700707y).

Conditions: 363.15 K; 101.33 kPa; Liquid; Vibrating tube method
Measured attribute: mass density (kg/m3)

1. CCCCCCCCn1cc[n+](C)c1.O=S(=O)([N-]S(=O)(=O)C(F)(F)F)C(F)(F)F = 1263.5
2. N#CC[n+]1ccccc1.O=S(=O)([N-]S(=O)(=O)C(F)(F)F)C(F)(F)F = 1568.3
3. CCCCCCCCCCn1cc[n+](C)c1.O=S(=O)([N-]S(=O)(=O)C(F)(F)F)C(F)(F)F = 1223.1
4. Cn1cc[n+](C)c1.N#C[S-] [1,3-dimethylimidazolium thiocyanate] = 1117.2
5. CCCCCC[n+]1ccn(C)c1.O=S(=O)([N-]S(=O)(=O)C(F)(F)F)C(F)(F)F = 1311.9
6. CCCC[N+]1(C)CCCC1.FC(F)(F)C(F)(F)[P-](F)(F)(F)(C(F)(F)C(F)(F)F)C(F)(F)C(F)(F)F = 1514.7
7. CCCCCCCCCCCCCC[P+](CCCCCC)(CCCCCC)CCCCCC.O=S(=O)([N-]S(=O)(=O)C(F)(F)F)C(F)(F)F = 1017.3

====

Conditions: 323.15 K; 101.33 kPa; Liquid; Vibrating tube method
Reported mass density values are given for each entry in this list.
Measured attribute: mass density (kg/m3)

1) CCCCCC[n+]1ccn(C)c1.O=S(=O)([N-]S(=O)(=O)C(F)(F)F)C(F)(F)F = 1347.9
2) CCCCCCCCn1cc[n+](C)c1.O=S(=O)([N-]S(=O)(=O)C(F)(F)F)C(F)(F)F = 1298.2
3) CCCCCC[n+]1ccn(C)c1.FC(F)(F)C(F)(F)[P-](F)(F)(F)(C(F)(F)C(F)(F)F)C(F)(F)C(F)(F)F = 1525
4) CCCCCCCCCCCCCC[P+](CCCCCC)(CCCCCC)CCCCCC.O=S(=O)([N-]S(=O)(=O)C(F)(F)F)C(F)(F)F = 1045.7
5) CCCC[N+]1(C)CCCC1.FC(F)(F)C(F)(F)[P-](F)(F)(F)(C(F)(F)C(F)(F)F)C(F)(F)C(F)(F)F = 1556.4
6) CCCCCCCCCCn1cc[n+](C)c1.O=S(=O)([N-]S(=O)(=O)C(F)(F)F)C(F)(F)F = 1256.8
7) C[N+]1(CC#N)CCCC1.O=S(=O)([N-]S(=O)(=O)C(F)(F)F)C(F)(F)F = 1514.5
8) CCOS(=O)(=O)[O-].CCn1cc[n+](C)c1 [1-ethyl-3-methylimidazolium ethyl sulfate] = 1222.1
9) CCCCn1cc[n+](C)c1.O=S(=O)([O-])C(F)(F)F [1-butyl-3-methylimidazolium trifluoromethanesulfonate] = 1277.7
